test name: AUC (0 to infinity) in mouse at 5 mg/kg, po
Type: ADME, organism-based
measurement context: in vivo
readout: AUC(0-inf) (ng·h/mL)

In [3]: df
Out[3]:
                                   molecule     readout  result
0                CNC(=O)c1ccc2c3c1CCN3CCNC2  AUC(0-inf)     720
1  C[C@H]1CN2CCNCc3ccc(C(=O)NCC(F)F)c1c32 [BEXICASERIN]  AUC(0-inf)     910

* * *

test name: Oral bioavailability in mouse at 5 mg/kg
Type: ADME, organism-based
measurement context: in vivo
readout: bioavailability (%)

>>> df
                                   molecule  unit_label  result
0                CNC(=O)c1ccc2c3c1CCN3CCNC2           %    85.6
1  C[C@H]1CN2CCNCc3ccc(C(=O)NCC(F)F)c1c32 [BEXICASERIN]           %     100

* * *

test name: Drug concentration in plasma of fasted male Sprague-Dawley rat assessed as inhibition of food intake at 10 mg/kg, po measured after 1 hr relative to control
Assay type: organism-based
readout: concentration at 1 h (ng/mL)

Example results:
>>> print(df.to_string())
                                   compound  result
0  CCC1CN2CCNCc3ccc(C(=O)NCC(F)F)c1c32 (single isomer, unassigned; (+))     866
1    C[C@H]1CN2CCNCc3ccc(C(=O)NCC(F)F)c1c32     960

A: CCC1CN2CCNCc3ccc(C(=O)NC)c1c32 (single isomer, unassigned; (+))
B: CNC(=O)c1ccc2c3c1C(CC(F)(F)F)CN3CCNC2 (single isomer, unassigned; (+))
-- ask For the two items A and B , which reports the higher concentration at 1 h value? Reply with the label of the item you choose.
-- reply B
(B: 1660 ng/mL, A: 1010 ng/mL)

* * *

test name: Half life in mouse at 5 mg/kg, po
Assay type: ADME, organism-based
measurement context: in vivo
readout: half-life (h)

A: CNC(=O)c1ccc2c3c1CCN3CCNC2
B: C[C@H]1CN2CCNCc3ccc(C(=O)NCC(F)F)c1c32
-- ask Identify the entry with the smaller half-life: A or B . Reply with the label of the item you choose.
-- reply A
(A: 0.6 h, B: 1.5 h)

* * *

test name: Tmax in mouse at 5 mg/kg, po
Type: ADME, organism-based
measurement context: in vivo
readout: Tmax (min)

                               smiles_str  unit_label  result
0              CNC(=O)c1ccc2c3c1CCN3CCNC2         min      15
1  C[C@H]1CN2CCNCc3ccc(C(=O)NCC(F)F)c1c32         min      15

* * *

test name: Drug concentration in brain of fasted male Sprague-Dawley rat assessed as inhibition of food intake at 10 mg/kg, po measured after 1 hr relative to control
Type: organism-based
measurement context: read-out: Ct
readout: concentration at 1 h (ng/g)

Example results:
In [3]: df
Out[3]:
                                   compound  result
0  CCC1CN2CCNCc3ccc(C(=O)NCC(F)F)c1c32 (single isomer, unassigned; (+))     454
1  CNC(=O)c1ccc2c3c1C(CC(F)(F)F)CN3CCNC2 (single isomer, unassigned; (+))     440

a: CCC1CN2CCNCc3ccc(C(=O)NC)c1c32 (single isomer, unassigned; (+))
b: C[C@H]1CN2CCNCc3ccc(C(=O)NCC(F)F)c1c32 [BEXICASERIN]
-- ask For the two items a and b , which reports the higher concentration at 1 h value? Reply with the label of the item you choose.
-- reply b

* * *

Please consider the recorded EC50 for 5-hydroxytryptamine receptor 2C (Homo sapiens, UniProt P28335) in what follows.
readout: EC50 (nM)

                          molecule  result
0    CSCCNC(=O)c1ccc2c3c1CCN3CCNC2      59
1  CCCOCCNC(=O)c1ccc2c3c1CCN3CCNC2      15
2      CCNC(=O)c1ccc2c3c1CCN3CCNC2     252

A: CNC(=O)c1ccc2c3c1CCCN3CCNC2
B: COCCNC(=O)c1ccc2c3c1C(CC(F)(F)F)CN3CCNC2 (racemic)
-- ask For the two items A and B , which reports the higher EC50 value? Reply with the label of the item you choose.
-- reply A

* * *

test name: Cmax in mouse at 5 mg/kg, po
Assay type: ADME, organism-based
measurement context: in vivo
readout: Cmax (ng/mL)

                               smiles_str  result
0              CNC(=O)c1ccc2c3c1CCN3CCNC2     940
1  C[C@H]1CN2CCNCc3ccc(C(=O)NCC(F)F)c1c32     820

* * *

test name: Clearance in rat at 2 mg/kg, iv
Assay type: ADME, organism-based
measurement context: in vivo
readout: clearance (mL/min/kg)

In [3]: df
Out[3]:
                                   compound    readout  result
0  C[C@H]1CN2CCNCc3ccc(C(=O)NCC(F)F)c1c32 [BEXICASERIN]  clearance    58.5
1                CNC(=O)c1ccc2c3c1CCN3CCNC2  clearance    44.3

* * *

test name: Tmax in dog at 5 mg/kg, po
Format: ADME, organism-based, Canis lupus familiaris
measurement context: in vivo
readout: Tmax (min)

I: C[C@H]1CN2CCNCc3ccc(C(=O)NCC(F)F)c1c32 [BEXICASERIN]
II: CNC(=O)c1ccc2c3c1CCN3CCNC2
-- ask Identify the entry with the smaller Tmax: I or II . Reply with the label of the item you choose.
-- reply I

* * *

test name: AUC (0 to infinity) in dog at 2 mg/kg, iv
Type: ADME, organism-based, Canis lupus familiaris
measurement context: in vivo
readout: AUC(0-inf) (ng·h/mL)

In [3]: df
Out[3]:
                               smiles_str  unit_label  result
0  C[C@H]1CN2CCNCc3ccc(C(=O)NCC(F)F)c1c32     ng·h/mL    1620
1              CNC(=O)c1ccc2c3c1CCN3CCNC2     ng·h/mL    1830

* * *

test name: AUC (0 to infinity) in dog at 5 mg/kg, po
Format: ADME, organism-based, Canis lupus familiaris
measurement context: in vivo
readout: AUC(0-inf) (ng·h/mL)

                               smiles_str  unit_label  result
0  C[C@H]1CN2CCNCc3ccc(C(=O)NCC(F)F)c1c32     ng·h/mL    3920
1              CNC(=O)c1ccc2c3c1CCN3CCNC2     ng·h/mL    4130

* * *

test name: Cmax in rat at 5 mg/kg, po
Assay type: ADME, organism-based
measurement context: in vivo
readout: Cmax (ng/mL)

>>> print(df.to_string())
                               smiles_str  result
0  C[C@H]1CN2CCNCc3ccc(C(=O)NCC(F)F)c1c32     450
1              CNC(=O)c1ccc2c3c1CCN3CCNC2     570

* * *

test name: Basicity constant, pKa of compound
Format: physicochemical
readout: pKa
Answer with the value's number alone.

-- ask Please report the recorded pKa for `CNC(=O)c1ccc2c3c1CCN3CCNC2` .
-- reply 7.93

* * *

test name: Renal clearance in dog at 2 mg/kg, iv
Assay type: ADME, organism-based, Canis lupus familiaris
measurement context: in vivo
readout: CL renal (L/h/kg)

1: C[C@H]1CN2CCNCc3ccc(C(=O)NCC(F)F)c1c32
2: CNC(=O)c1ccc2c3c1CCN3CCNC2
-- ask For the two items 1 and 2 , which reports the higher CL renal value? Reply with the label of the item you choose.
-- reply 2

* * *

test name: Volume of distribution at steady state in mouse at 2 mg/kg, iv
Type: ADME, organism-based
measurement context: in vivo, read-out: Vdss
readout: Vd (L/kg)

>>> df
                                   molecule  result
0  C[C@H]1CN2CCNCc3ccc(C(=O)NCC(F)F)c1c32 [BEXICASERIN]    2.98
1                CNC(=O)c1ccc2c3c1CCN3CCNC2    2.44

* * *

test name: Oral bioavailability in Cynomolgus monkey at 5 mg/kg
Type: ADME, organism-based, Macaca fascicularis
measurement context: in vivo
readout: bioavailability (%)

>>> print(df.to_string())
                                   compound  result
0  C[C@H]1CN2CCNCc3ccc(C(=O)NCC(F)F)c1c32 [BEXICASERIN]      58
1                CNC(=O)c1ccc2c3c1CCN3CCNC2    71.2
